- system: human mAChRM1 (Homo sapiens, UniProt P11229)
- Construct: host or cells: CHO-K1
- Sequence (P11229 1-460): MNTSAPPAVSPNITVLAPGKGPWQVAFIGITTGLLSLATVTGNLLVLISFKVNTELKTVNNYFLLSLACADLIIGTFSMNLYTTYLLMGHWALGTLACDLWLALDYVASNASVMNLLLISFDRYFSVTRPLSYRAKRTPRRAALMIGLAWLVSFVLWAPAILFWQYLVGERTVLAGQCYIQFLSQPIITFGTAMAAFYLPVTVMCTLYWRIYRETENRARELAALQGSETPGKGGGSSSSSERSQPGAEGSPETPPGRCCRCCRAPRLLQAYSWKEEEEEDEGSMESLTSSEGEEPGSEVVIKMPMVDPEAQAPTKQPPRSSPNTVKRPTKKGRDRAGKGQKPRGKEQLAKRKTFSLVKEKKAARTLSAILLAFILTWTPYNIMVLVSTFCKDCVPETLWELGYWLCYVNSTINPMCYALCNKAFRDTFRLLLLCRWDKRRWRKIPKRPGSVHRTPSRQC
- assay: mAChR M1 cell-based functional assay (calcium mobilization), positive allosteric modulator activity: increase in the EC20 acetylcholine response
- experimental parameters: increase in the EC20 acetylcholine response, read-out: PAM Activity Human M1 EC50
observed property: EC50 (nM)
State just the number; it will be interpreted in nM.

Observe how each entry below is paired with its result.
Recorded EC50 (molecule Cn1cc2c(-c3cc(F)c(CN4Cc5ncccc5C4=O)c(F)c3)ccc(C3(O)COC3)c2n1 ): 254

For record CC[C@@](C)(O)c1ccc(-c2cc(F)c(CN3Cc4ncccc4C3=O)c(F)c2)c2cn(C)nc12 the listed EC50 is 359

# molecule CC(C)(O)c1ccc(-c2cc(F)c(CN3Cc4ncccc4C3=O)c(F)c2)c2cccnc12 ; its EC50 = 4310

Query molecule follows.
Looking up CC(C)(O)c1ccc(-c2cc(F)c(CN3Cc4ncccc4C3=O)c(F)c2)cc1F , I see its EC50 listed as 2670
